# experimental_protocol: Toxicity in zebra fish assessed as survival rate at 250 uM observed for 24 hrs
# Design: species or system Danio rerio
# test_parameters: zebrafish
Documented survival at 24 h, 250 µM across a set of molecules
Just the number please, in %, no unit attached.

**Q:** Complete the entry with survival at 24 h, 250 µM for "O=C(CCC(=O)N1CCN(CCCN2c3ccccc3Sc3ccccc32)CC1)OCCCCOc1no[n+]([O-])c1S(=O)(=O)c1ccccc1"
**A:** 64.5

**Q:** Complete the entry with survival at 24 h, 250 µM for "O=C(CCC(=O)N1CCN(CCCN2c3ccccc3Sc3ccccc32)CC1)OCCOc1no[n+]([O-])c1S(=O)(=O)c1ccccc1"
**A:** 51.6

**Q:** Complete the entry with survival at 24 h, 250 µM for "O=C(CCC(=O)N1CCN(CCCN2c3ccccc3Sc3ccc(C(F)(F)F)cc32)CC1)OCCCCOc1no[n+]([O-])c1S(=O)(=O)c1ccccc1"
**A:** 19.4

**Q:** Complete the entry with survival at 24 h, 250 µM for "CSc1ccc2c(c1)N(CCCN1CCN(C(=O)CCC(=O)OCCOc3no[n+]([O-])c3S(=O)(=O)c3ccccc3)CC1)c1ccccc1S2"
**A:** 32.3

**Q:** Complete the entry with survival at 24 h, 250 µM for "O=C(CCC(=O)N1CCN(CCCN2c3ccccc3Sc3ccc(C(F)(F)F)cc32)CC1)OCCOc1no[n+]([O-])c1S(=O)(=O)c1ccccc1"
**A:** 25.8

**Q:** Complete the entry with survival at 24 h, 250 µM for "CSc1ccc2c(c1)N(CCCN1CCN(C(=O)CCC(=O)OCCCCOc3no[n+]([O-])c3S(=O)(=O)c3ccccc3)CC1)c1ccccc1S2"
**A:** 25.8

---

# Test system: SK-BR-3
# experimental_protocol: Potency index, ratio of IC50 of TFP to IC50 of compound for antiproliferative activity against human SKBR3 cells assessed as reduction in cell viability incubated for 2 days by MTT assay
# Type: functional
Documented Ratio IC50 across a set of compounds

| line_notation | Ratio IC50 |
| --- | --- |
| CSc1ccc2c(c1)N(CCCN1CCN(C(=O)CCC(=O)NCCOc3no[n+]([O-])c3S(=O)(=O)c3ccccc3)CC1)c1ccccc1S2 | 4 - 9 |
| O=C(CCC(=O)N1CCN(CCCN2c3ccccc3Sc3ccc(C(F)(F)F)cc32)CC1)NCCOc1no[n+]([O-])c1S(=O)(=O)c1ccccc1 | 4 - 9 |

Now for a further compound.
**Q:** Complete the entry with Ratio IC50 for "O=C(CCC(=O)N1CCN(CCCN2c3ccccc3Sc3ccccc32)CC1)NCCOc1no[n+]([O-])c1S(=O)(=O)c1ccccc1"
**A:** 4 - 9

---

Documented IC50 across a set of molecules
# Test system: SK-BR-3
# experimental_protocol: Antiproliferative activity against human SKBR3 cells assessed as reduction in cell viability incubated for 2 days by MTT assay
# Type: functional, cell-based
# test_parameters: SK-BR-3, 48 h
Just the number please, in µM, no unit attached.

Past entries and their recorded results:
| line_notation | IC50 [µM] |
| --- | --- |
| CSc1ccc2c(c1)N(CCCN1CCN(C(=O)CCC(=O)OCC#CCOc3no[n+]([O-])c3S(=O)(=O)c3ccccc3)CC1)c1ccccc1S2 | 2.63 |
| O=C(CCC(=O)N1CCN(CCCN2c3ccccc3Sc3ccccc32)CC1)OCCOCCOc1no[n+]([O-])c1S(=O)(=O)c1ccccc1 | 3.13 |
| O=C(CCC(=O)N1CCN(CCCN2c3ccccc3Sc3ccccc32)CC1)NCCOc1no[n+]([O-])c1S(=O)(=O)c1ccccc1 | 4.01 |

Now for a further molecule.
**Q:** Complete the entry with IC50 for "CSc1ccc2c(c1)N(CCCN1CCN(C(=O)CCC(=O)OCCOCCOc3no[n+]([O-])c3S(=O)(=O)c3ccccc3)CC1)c1ccccc1S2"
**A:** 3.91

The origin of these recorded values is ChEMBL document CHEMBL4342417.
